Let's look at some compounds and their measured fraction unbound at 18 h, 5 µM.
- Protocol Description: Protein binding in rat plasma assessed as free fraction at 5 uM incubated for 18 hrs by equilibrium dialysis based LC-MS/MS analysis
- Format: ADME, cell-free
Readout Name: fraction unbound at 18 h, 5 µM

1. COc1cc(F)c(O[C@H]2CC[C@@](C)(C(=O)O)CC2)cc1C(=O)N[C@H]1[C@@H]2CC[C@@H](C2)[C@H]1C(=O)Nc1ccc(F)c(S(F)(F)(F)(F)F)c1; 0.0013
2. COc1cc(F)c(O[C@H]2CC[C@@H](C(=O)O)CC2)cc1C(=O)N[C@@H]1[C@H]2CC[C@H](C2)[C@@H]1C(=O)Nc1cccc(S(=O)(=O)C(F)(F)F)c1; 0.011
3. COc1cc(F)c(O[C@H]2CC[C@@](C)(C(=O)O)CC2)cc1C(=O)N[C@@H]1[C@H]2CC[C@H](C2)[C@@H]1C(=O)Nc1ccc(F)c(S(F)(F)(F)(F)F)c1; 0.0015
4. COc1cc(F)c(-c2ccc(C(=O)O)cc2)cc1C(=O)N[C@H]1[C@@H](C(=O)Nc2cccc(S(=O)(=O)C(F)(F)F)c2)[C@@H]2C=C[C@H]1C2 (racemic); 0.0031

====

- System Tested: Relaxin receptor 1 (Homo sapiens) (UniProt Q9HBX9)
- Protocol Description: Agonist activity at human RXFP1 expressed in T-Rex-CHO-K1 cells assessed as stimulation of cAMP production by measuring maximal efficacy at 50 uM incubated for 45 mins by HTRF assay relative to control
- Assay type: functional, cell-based
- Condition Notes: filed as agonist
Let's look at some molecules and their measured Emax.
Readout Name: Emax (%)

1) COc1cc(F)c(Oc2ccc(C(=O)O)cc2)cc1C(=O)N[C@H]1[C@@H](C(=O)Nc2cccc(S(=O)(=O)C(F)(F)F)c2)[C@@H]2C=C[C@H]1C2 (racemic); 103
2) COc1ccccc1C(=O)N[C@@H]1[C@H](C(=O)Nc2cccc(S(=O)(=O)C(F)(F)F)c2)[C@H]2C=C[C@@H]1C2 (racemic); 100
3) COc1ccccc1C(=O)Nc1ccccc1C(=O)Nc1cccc(S(=O)(=O)C(F)(F)F)c1; 153
4) COc1ccccc1C(=O)N[C@@H]1CCC[C@@H]1C(=O)Nc1cccc(S(=O)(=O)C(F)(F)F)c1 (racemic); 74
5) COc1cc(F)c(-c2ccc(C(=O)O)cc2)cc1C(=O)N[C@@H]1[C@H]2CC[C@H](C2)[C@@H]1C(=O)Nc1cccc(S(=O)(=O)C(F)(F)F)c1; 103
6) COc1cc(F)c(O[C@H]2CC[C@](C)(C(=O)O)CC2)cc1C(=O)N[C@@H]1[C@H]2CC[C@H](C2)[C@@H]1C(=O)Nc1cccc(S(=O)(=O)C(F)(F)F)c1; 103

====

- Protocol Description: Metabolic stability in cryopreserved human hepatocytes assessed as intrinsic clearance measured per 10^6 cells at 1 uM after 120 mins by LC-MS/MS analysis
- Assay type: ADME, cell-based, Hepatocyte
- Condition Notes: cryopreserved hepatocytes, read-out: CLH
Let's look at some compounds and their measured hepatocyte CLint at 1 µM.
Readout Name: hepatocyte CLint at 1 µM

1) COc1cc(F)c(O[C@H]2CC[C@@](C)(C(=O)O)CC2)cc1C(=O)N[C@@H]1COC[C@@H]1C(=O)Nc1cccc(S(=O)(=O)C(F)(F)F)c1; 6.3 µL/min/1e6 cells
2) COc1cc(F)c(-c2ccc(S(N)(=O)=O)cc2)cc1C(=O)N[C@@H]1[C@H]2CC[C@H](C2)[C@@H]1C(=O)Nc1cccc(S(=O)(=O)C(F)(F)F)c1; 18 µL/min/1e6 cells
3) COc1ccccc1C(=O)Nc1ccccc1C(=O)Nc1cccc(S(=O)(=O)C(F)(F)F)c1; 6.7 µL/min/1e6 cells
4) COc1cc(F)c(C(=O)N2CCC(C)(C(=O)O)CC2)cc1C(=O)N[C@H]1[C@@H](C(=O)Nc2cccc(S(=O)(=O)C(F)(F)F)c2)[C@@H]2C=C[C@H]1C2 (racemic); 3 µL/min/1e6 cells
5) COc1cc(F)c(O[C@H]2CC[C@@H](C(=O)O)CC2)cc1C(=O)N[C@@H]1[C@H]2CC[C@H](C2)[C@@H]1C(=O)Nc1cccc(C(F)F)c1; 11 µL/min/1e6 cells
6) COc1cc(F)c(O[C@H]2CC[C@@H](C(=O)O)CC2)cc1C(=O)N[C@H]1[C@@H](C(=O)Nc2ccc(F)c(C(F)(F)F)c2)[C@@H]2C=C[C@H]1C2; 7.7 µL/min/1e6 cells

====

Let's look at some compounds and their measured Vd.
- Protocol Description: Volume of distribution at steady state in Han Wistar rat at 0.76 micromol/kg, iv by LC-MS/MS analysis
- Assay type: ADME, organism-based
- Condition Notes: in vivo, dose 0.76 µmol/kg, read-out: Vdss
Readout Name: Vd (L/kg)

1) COc1cc(F)c(O[C@H]2CC[C@@H](C(=O)O)CC2)cc1C(=O)N[C@@H]1[C@H]2CC[C@H](C2)[C@@H]1C(=O)Nc1cccc(S(=O)(=O)C(F)(F)F)c1; 1.7
2) COc1cc(F)c(-c2ccc(C(=O)O)cc2)cc1C(=O)N[C@H]1[C@@H](C(=O)Nc2cccc(S(=O)(=O)C(F)(F)F)c2)[C@@H]2C=C[C@H]1C2 (racemic); 0.92

====

- Tested on: IKs channel
- Protocol Description: Inhibition of human IKS channel by automated electrophysiology recording
- Type: toxicity
pIC50: −log10 of the molar value.
Readout Name: pIC50

1) COc1cc(F)c(O[C@H]2CC[C@@](C)(C(=O)O)CC2)cc1C(=O)N[C@@H]1[C@H]2CC[C@H](C2)[C@@H]1C(=O)Nc1ccc(F)c(S(F)(F)(F)(F)F)c1; < 4.48

====

- Protocol Description: Clearance in Han Wistar rat at 0.99 micromol/kg, iv by LC-MS/MS analysis
- Type: ADME, organism-based
- Condition Notes: in vivo, dose 0.99 µmol/kg
Readout Name: clearance (mL/min/kg)

1. CC(C)Oc1ccccc1C(=O)Nc1ccccc1C(=O)Nc1cccc(S(=O)(=O)C(F)(F)F)c1; 30

====

- System Tested: UniProt Q9HBX9
- Sequence (Q9HBX9 whole entry): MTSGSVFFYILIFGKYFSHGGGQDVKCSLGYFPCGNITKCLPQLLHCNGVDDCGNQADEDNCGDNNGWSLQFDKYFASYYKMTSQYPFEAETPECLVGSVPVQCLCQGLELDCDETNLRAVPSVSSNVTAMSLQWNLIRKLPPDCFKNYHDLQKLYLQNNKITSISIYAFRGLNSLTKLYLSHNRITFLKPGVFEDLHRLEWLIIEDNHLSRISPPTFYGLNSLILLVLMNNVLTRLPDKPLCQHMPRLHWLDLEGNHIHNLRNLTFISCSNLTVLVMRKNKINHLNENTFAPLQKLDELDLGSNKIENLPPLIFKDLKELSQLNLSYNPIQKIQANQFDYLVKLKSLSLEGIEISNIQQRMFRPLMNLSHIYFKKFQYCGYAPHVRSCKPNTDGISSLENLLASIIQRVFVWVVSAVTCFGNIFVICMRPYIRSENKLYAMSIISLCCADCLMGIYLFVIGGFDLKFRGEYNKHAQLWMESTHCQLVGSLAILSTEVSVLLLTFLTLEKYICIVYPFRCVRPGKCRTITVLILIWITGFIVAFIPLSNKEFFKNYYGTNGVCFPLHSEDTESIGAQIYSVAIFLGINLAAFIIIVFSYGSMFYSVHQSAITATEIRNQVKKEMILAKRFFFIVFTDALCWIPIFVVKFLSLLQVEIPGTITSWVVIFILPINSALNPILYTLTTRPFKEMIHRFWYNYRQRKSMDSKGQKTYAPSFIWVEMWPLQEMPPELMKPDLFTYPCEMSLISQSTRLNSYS
- Protocol Description: Agonist activity at human RXFP1 expressed in T-Rex-CHO-K1 cells assessed as stimulation of cAMP production incubated for 45 mins by HTRF assay
- Format: functional, cell-based
Mark each entry true (1) if its EC50 sits below 0.2 µM, and false (0) for all others.

1. COc1cc(F)c(O[C@H]2CC[C@@H](C(=O)O)CC2)cc1C(=O)N[C@H]1[C@@H](C(=O)Nc2cccc(S(=O)(=O)C(F)(F)F)c2)[C@@H]2C=C[C@H]1C2; true (1)
2. COc1cc(F)c(O[C@H]2CC[C@@H](C(=O)O)CC2)cc1C(=O)N[C@H]1[C@H](C(=O)Nc2ccc(F)c(C(F)(F)F)c2)[C@@H]2C=C[C@H]1C2; false (0)
3. COc1cc(F)c(-c2ccc(C(=O)O)cc2)cc1C(=O)N[C@H]1[C@@H](C(=O)Nc2cccc(S(=O)(=O)C(F)(F)F)c2)[C@@H]2C=C[C@H]1C2; true (1)
4. COc1ccccc1C(=O)Nc1ccccc1C(=O)Nc1cccc(S(=O)(=O)C(F)(F)F)c1; false (0)
5. COc1cc(F)c(O[C@H]2CC[C@@H](C(=O)O)CC2)cc1C(=O)N[C@@H]1[C@H](C(=O)Nc2ccc(F)c(C(F)(F)F)c2)[C@H]2C=C[C@@H]1C2; false (0)
6. COc1cc(F)c(O[C@H]2CC[C@@H](C(=O)O)CC2)cc1C(=O)N[C@@H]1[C@H]2CC[C@H](C2)[C@@H]1C(=O)Nc1cccc(S(=O)(=O)C(F)(F)F)c1; true (1)
